Method: in vitro
Measurement parameters: PAMPA, Permeability (cm/s), same protocol, second table
Measurement name: Papp (nm/s)
Express it in nm/s; write the number only.

Prompt: Requested read-out: Papp. Entry: CCc1c2c(nc3ccc(O)cc13)-c1cc3c(c(=O)n1C2)COC(=O)[C@]3(O)CC [SN-38, reference compound]
Completion: 18.7

###

Method: Tissue distribution of SDC-TRAP and degradation products in tumor-bearing mice (plasma, tumor, heart)
Type: in vivo, Female SCID Mouse (H1975)
Measurement parameters: female, SCID, mouse, in vivo
Measurement name: concentration at 1 h (µM)
Express it in µM; write the number only.

Prompt: Requested read-out: concentration at 1 h. Entry: `CCc1c2c(nc3ccc(OC(=O)N4CCC(CCn5ccc6cc(-n7c(O)nnc7-c7cc(C(C)C)c(O)cc7O)ccc65)CC4)cc13)-c1cc3c(c(=O)n1C2)COC(=O)[C@]3(O)CC`
Completion: 52.9

###

Method: Tissue distribution of SDC-TRAP and degradation products in tumor-bearing mice (plasma, tumor, heart)
Type: in vivo, Female SCID Mouse (H1975)
Measurement parameters: female, SCID, mouse, in vivo
Measurement name: Kp at 48 h

Prompt: Requested read-out: Kp at 48 h. Entry: `CCc1c2c(nc3ccc(OC(=O)N4CCC(CCn5ccc6cc(-n7c(O)nnc7-c7cc(C(C)C)c(O)cc7O)ccc65)CC4)cc13)-c1cc3c(c(=O)n1C2)COC(=O)[C@]3(O)CC`
Completion: 6.85

###

Method: Tissue distribution of SDC-TRAP and degradation products in tumor-bearing mice (plasma, tumor, heart)
Type: in vivo, Female SCID Mouse (H1975)
Measurement parameters: female, SCID, mouse, in vivo
Give Kp at 24 h for every item shown.
In your answer, state the number alone without any accompanying words.

Prompt: Requested read-out: Kp at 24 h. Entry: `CCc1c2c(nc3ccc(OC(=O)N4CCC(CCn5ccc6cc(-n7c(O)nnc7-c7cc(C(C)C)c(O)cc7O)ccc65)CC4)cc13)-c1cc3c(c(=O)n1C2)COC(=O)[C@]3(O)CC`
Completion: 20.4

Prompt: Requested read-out: Kp at 24 h. Entry: CCc1c2c(nc3ccc(O)cc13)-c1cc3c(c(=O)n1C2)COC(=O)[C@]3(O)CC [SN-38, reference compound]
Completion: 105

###

Method: Tissue distribution of SDC-TRAP and degradation products in tumor-bearing mice (plasma, tumor, heart)
Assay type: in vivo, Female SCID Mouse (H1975)
Measurement parameters: female, SCID, mouse, in vivo; read-out: Plasma Conc.
Measurement name: concentration at 24 h
Provide a numeric answer, followed by its unit.

Prompt: Requested read-out: concentration at 24 h. Entry: CCNC(=O)c1nnc(-c2cc(C(C)C)c(O)cc2O)n1-c1ccc(C(=O)N2CCN(c3cc(C)c(OC(=O)Nc4cccc5c4CN(C4CCC(=O)NC4=O)C5=O)c(C)c3)CC2)cc1 (stereo not shown) [SDC-TRAP-0178]
Completion: 28 nM

###

Method: Artificial membrane permeability assay (PAMPA)
Measurement parameters: Permeability (10^−6 cm/s), same protocol, second table
Measurement name: Papp at 5 h (×10⁻⁶ cm/s)
Express it in ×10⁻⁶ cm/s; write the number only.

Prompt: Requested read-out: Papp at 5 h. Entry: `Cn1c(=O)c2c(ncn2C)n(C)c1=O`
Completion: 14.3

Prompt: Requested read-out: Papp at 5 h. Entry: CCc1c2c(nc3ccc(O)cc13)-c1cc3c(c(=O)n1C2)COC(=O)[C@]3(O)CC [SN-38, reference compound]
Completion: 1.87

###

Method: Mouse plasma stability (Examples 16-18)
Assay type: in vitro ADME
Measurement parameters: 5 μM, 19 h, 37° C.
Mark met only for Mouse (5 μM) % Remaining 19 h (37° C.) values smaller than 40%; exact matches and larger values are not met.

Prompt: API: query returns whether the molecule falls strictly under 40% in Mouse (5 μM) % Remaining 19 h (37° C.). Query: CCc1c2c(nc3ccc(OC(=O)N(C)CCOCCn4ccc5cc(-n6c(O)nnc6-c6cc(C(C)C)c(O)cc6O)ccc54)cc13)-c1cc3c(c(=O)n1C2)COC(=O)C3(O)CC (stereo not drawn) [SDC-TRAP-0029]
Completion: met

Prompt: API: query returns whether the molecule falls strictly under 40% in Mouse (5 μM) % Remaining 19 h (37° C.). Query: CCc1c2c(nc3ccc(O)cc13)-c1cc3c(c(=O)n1C2)COC(=O)C3(CC)OC(=O)N(C)CCOCCn1ccc2cc(-n3c(O)nnc3-c3cc(C(C)C)c(O)cc3O)ccc21 (stereo not drawn) [SDC-TRAP-0037]
Completion: met

Prompt: API: query returns whether the molecule falls strictly under 40% in Mouse (5 μM) % Remaining 19 h (37° C.). Query: CCc1c2c(nc3ccc(OC(=O)N4CCN(Cc5ccc(-n6c(O)nnc6-c6cc(C(C)C)c(O)cc6O)cc5)CC4)cc13)-c1cc3c(c(=O)n1C2)COC(=O)C3(O)CC (stereo not drawn) [SDC-TRAP-0046]
Completion: met

Prompt: API: query returns whether the molecule falls strictly under 40% in Mouse (5 μM) % Remaining 19 h (37° C.). Query: CCc1c2c(nc3ccc(O)cc13)-c1cc3c(c(=O)n1C2)COC(=O)[C@]3(O)CC [SN-38, reference compound]
Completion: not met

Prompt: API: query returns whether the molecule falls strictly under 40% in Mouse (5 μM) % Remaining 19 h (37° C.). Query: CCc1c2c(nc3ccc(OC(=O)N4CCN(c5ccc(-n6c(O)nnc6-c6cc(C(C)C)c(O)cc6O)cc5)CC4)cc13)-c1cc3c(c(=O)n1C2)COC(=O)C3(O)CC (stereo not drawn) [SDC-TRAP-0045]
Completion: not met

###

Method: Tissue distribution of SDC-TRAP and degradation products in tumor-bearing mice (plasma, tumor, heart)
Type: in vivo, Female SCID Mouse (H1975)
Measurement parameters: female, SCID, mouse, in vivo; read-out: Tumor/Plasma Ratio
Measurement name: Kp at […]
In your answer, state the number alone without any accompanying words.

Prompt: Requested read-out: Kp at […]. Entry: CCNC(=O)c1nnc(-c2cc(C(C)C)c(O)cc2O)n1-c1ccc(C(=O)N2CCN(c3cc(C)c(OC(=O)Nc4cccc5c4CN(C4CCC(=O)NC4=O)C5=O)c(C)c3)CC2)cc1 (stereo not shown)
Completion: 0.0179

Data provenance: patent US20200316090A1
